Below, each entry is listed with its recorded GI50.
Tested on: SF-268
Assay: NCI tumour cell line growth inhibition, 48 h
Activity calls are given as the source filed them. No stated cut-off is given here; in the data, active = GI50 up to about 1.1 µM and inactive = higher.

Guide cases for GI50, answers given:
Request the reported GI50 associated with CCOC(=O)C(=O)Nc1nc2ccc(OC)cc2s1 > 100 µM (inactive)

Request the reported GI50 associated with CC(=O)Oc1ccccc1C(=O)O > 100 µM (inactive)

Further cases:
Request the reported GI50 associated with CCOC(=O)C1(Cc2ccccc2)CCN(C(=O)c2ccccc2)C2C1C2(Cl)Cl (stereo not given) 29 µM (inactive)

Request the reported GI50 associated with O=C(O)CCSC(=O)Nc1ccccc1 44.8 µM (inactive)

Request the reported GI50 associated with CCOc1ccc2c(c1)c(=O)c1c(NCCN(CC)CC)ccc3nnn2c31 21.5 µM (inactive)

Request the reported GI50 associated with N#CC(NC12CC3CC(CC(C3)C1)C2)c1ccccc1 (stereo not given) > 100 µM (inactive)

Request the reported GI50 associated with CC1=C(C(=O)OCCO[N+](=O)[O-])C(c2ccccc2[N+](=O)[O-])C(C(=O)OC(C)C)=C(C)N1 (stereo not given) 20.4 µM (inactive)

Request the reported GI50 associated with CC1(C)CC(=O)c2c(nc3ccc4ccccc4c3c2-c2ccc(NC(=O)CCC(=O)Nc3ccc(-c4c5c(nc6ccc7ccccc7c46)CC(C)(C)CC5=O)cc3)cc2)C1 > 100 µM (inactive)

Request the reported GI50 associated with Cc1ccc(-c2c(C#N)c(-c3ccc(Cl)cc3)c(C#N)c(=O)n2NS(=O)(=O)c2ccc(C)cc2)cc1 26.3 µM (inactive)

Request the reported GI50 associated with COc1cc(C(C)c2cc3c(cc2OCCO)OCO3)cc(OC)c1OC (stereo not given) 3.9 µM (inactive)

Request the reported GI50 associated with O/N=C(\c1nc2ccc(Cl)cc2nc1O)C(O)c1ccc(Cl)cc1Cl (stereo not given) > 100 µM (inactive)

Request the reported GI50 associated with Nc1nc(Nc2ccccc2)sc1C(=O)c1cccs1 18.2 µM (inactive)

====

System: A549
Assay: NCI tumour cell line growth inhibition, 48 h
Activity calls are given as the source filed them. No stated cut-off is given here; in the data, active = GI50 up to about 1.1 µM and inactive = higher.
Below, each entry is listed with its recorded GI50.

Guide cases for GI50, answers given:
Request the reported GI50 associated with Cc1ccc(N2C(=O)CC(=O)N(NC(=O)C(C)Oc3ccccc3C)C2=S)cc1 (stereo not given) > 100 µM (inactive)

Request the reported GI50 associated with CC1CCCc2c1c1ccc3c(O)cccc3c1oc2=O (stereo not given) 56.9 µM (inactive)

Request the reported GI50 associated with COc1ccc(C=O)cc1Oc1ccc(C[C@H]2c3c(cc(OC)c4c3Oc3cc5c(cc3O4)CCN(C)C5=O)CCN2C)cc1 36.2 µM (inactive)

Request the reported GI50 associated with Sc1nn2c(COc3cc(Cl)c(OCc4nnc5sc(S)nn45)cc3Cl)nnc2s1 > 100 µM (inactive)

Request the reported GI50 associated with Clc1cc2nc[nH]c2cc1Cl > 100 µM (inactive)

Request the reported GI50 associated with Cc1nnc2sc(N/N=C/c3ccccc3)nn12 > 100 µM (inactive)

Request the reported GI50 associated with O=C(CCCCCCCCC(=O)NN1C(=O)/C(=C\c2ccc(O)c(O)c2)SC1c1c(O)ccc2ccccc12)NN1C(=O)C(=Cc2ccc(O)c(O)c2)SC1c1c(O)ccc2ccccc12 (stereo not given) 6.95 µM (inactive)

Request the reported GI50 associated with Cc1ccc(O)c(Cc2nc3ccccc3nc2-c2cccc(Cl)c2)c1 43.9 µM (inactive)

Further cases:
Request the reported GI50 associated with CC(=O)Nc1ccc(C(=O)NN2C(=O)CSC2c2ccc([N+](=O)[O-])cc2)cc1 (stereo not given) > 100 µM (inactive)

Request the reported GI50 associated with COC(=O)C1(O)c2ccccc2N=C2C1CCN2C (stereo not given) > 100 µM (inactive)

====

Test system: NCI-H23
Assay: NCI tumour cell line growth inhibition, 48 h
Activity calls are given as the source filed them. Rule as the data show it: active = GI50 up to about 1.1 µM and inactive = higher.
Measured attribute: GI50

Guide cases for GI50, answers given:
Request the reported GI50 associated with Cc1nnc2cc(C(=O)O)c3ccccc3n2c1=O > 10 µM (inactive)

Request the reported GI50 associated with CCN(CC)C1C(=O)NC1C#Cc1ccccc1 (stereo unspecified) 71.4 µM (inactive)

Request the reported GI50 associated with CC(C)=CC(=O)O[C@@H]1CC(C)(C)CC2C3=CCC4[C@]56CC[C@](O)(OC5)C(C)(C)C6CC[C@@]4(C)C3(C)CC[C@]21C(=O)O (stereo partly specified) 26.1 µM (inactive)

Further cases:
Request the reported GI50 associated with CCOC(=O)/C(=C\NC(C)(C)C)c1nc2ccccc2[nH]1 17.7 µM (inactive)

Request the reported GI50 associated with COc1cc2c(cc1OC)-c1c(cc(OC)c(OC)c1OC)C2=O > 100 µM (inactive)

Request the reported GI50 associated with OCC(O)C(O)C(O)c1nn(-c2ccc(Cl)cc2)c2nc3cc(Cl)c(Cl)cc3nc12 (stereo unspecified) 19.2 µM (inactive)

Request the reported GI50 associated with COc1cccc2c(Nc3ccc(S(=O)(=O)NC(C)=O)cc3)c3ccc([N+](=O)[O-])cc3nc12 35.2 µM (inactive)

Request the reported GI50 associated with O=C(NC(Cc1c[nH]cn1)C(=O)N1CCCC1)C1CCCC1 (stereo unspecified) > 100 µM (inactive)

Request the reported GI50 associated with CCOC(=O)CCC(C(=O)OCC)n1nc2ccc(Nc3c(C)[n+]([O-])c4ccc(Cl)cc4[n+]3[O-])cc2n1 (stereo unspecified) 21.5 µM (inactive)

Request the reported GI50 associated with N#CC1(C#N)C(c2ccccc2)C=CC12OCCCO2 (stereo unspecified) 31.2 µM (inactive)

Request the reported GI50 associated with CC(C(=O)[O-])S(=O)(=O)O.CCc1c2cc(OC)c(OC)cc2cc2c3cc(OC)c(OC)cc3cc[n+]12 15.9 µM (inactive)

====

System: SK-OV-3
Assay: NCI tumour cell line growth inhibition, 48 h
Active and inactive are the calls of the source. No stated cut-off is given here; in the data, active = GI50 up to about 1.1 µM and inactive = higher.
Measured attribute: GI50

Request the reported GI50 associated with CCN1CCC(O)(c2ccc(Oc3ccc(F)cc3)cc2)C(C(=O)c2ccc(Oc3ccc(F)cc3)cc2)C1 (configuration not stated) 17.8 µM (inactive)

Request the reported GI50 associated with O/N=C(\c1nc2ccc(Cl)cc2nc1O)C(O)c1ccc(Cl)cc1Cl (configuration not stated) > 100 µM (inactive)

Request the reported GI50 associated with Cc1ccc([S+]([O-])(=Nc2ccccc2)C(C(C)C)C(C)(C)Cl)cc1 (configuration not stated) > 50 µM (inactive)

Request the reported GI50 associated with COC1=CC(C)C2C[C@H]3O[C@H](O)C[C@H]4C(C)C(=O)C(O)C([C@@]2(C)C1=O)[C@@]34C (some centres not stated) > 100 µM (inactive)

Further cases:
Request the reported GI50 associated with N#Cc1c(N2CCOCC2)ncn(-c2ccccc2)c1=O > 100 µM (inactive)

Request the reported GI50 associated with CC[C@@H](O)C[C@H]1CCC[C@@]2(C[C@@H]3OC(=O)/C=C/[C@@](C)(O)[C@@H](O)[C@H](C)[C@@H](O)[C@H](OC4CCC(N(C)C)C(C)O4)[C@@H](O)[C@](C)(O)CCCCC/C=C/[C@@H]4CC(C)(C)O[C@@]4(O)C[C@H](O2)[C@H]3C)O1 (some centres not stated) 14.6 µM (inactive)

Request the reported GI50 associated with CC(C)=CCc1c(O)c(CC=C(C)C)c2oc3c(c(=O)c2c1O)C(C=C(C)C)Oc1cc(O)ccc1-3 (configuration not stated) 14.7 µM (inactive)

====

Tested on: SF-268
Assay: NCI tumour cell line growth inhibition, 48 h
Activity calls are given as the source filed them. Rule as the data show it: active = GI50 up to about 1.1 µM and inactive = higher.
Measured attribute: GI50

Request the reported GI50 associated with Cc1ccc(NC(=O)CC2Sc3ccccc3NC2=O)c(C)c1 (stereo unspecified) 21.4 µM (inactive)

Request the reported GI50 associated with C[n+]1c2ccccc2c(CNc2ccc(S(=O)(=O)N=C(N)N)cc2)c2ccccc21 7.06 µM (inactive)

Request the reported GI50 associated with O=C(Nc1ccccc1)OCCN=C1c2ccccc2CCc2ccccc21 25.6 µM (inactive)

Request the reported GI50 associated with O=C1/C(=C/c2ccc(Cl)cc2)NC(=S)N1CN1CCCCC1 20.5 µM (inactive)

Request the reported GI50 associated with CC1CC(Nc2ccc(Br)cc2)N(C(=O)c2ccc(Br)cc2)O1 (stereo unspecified) 1.25 µM (inactive)

Request the reported GI50 associated with Cc1ccc(Cl)c(NC(=O)C(=O)C(C(=O)c2ccncc2)C2OC(=O)c3ccccc32)c1 (stereo unspecified) > 100 µM (inactive)

Request the reported GI50 associated with CN(CCO)CCC1COc2ccccc2O1 (stereo unspecified) > 10 µM (inactive)

Request the reported GI50 associated with Cn1c(CCC#N)nc2ccc(Br)cc2c1=O > 100 µM (inactive)

Request the reported GI50 associated with O=[N+]([O-])c1cccc2nc3ccccc3c(NCCC[N+]3([O-])CCCCC3)c12 0.323 µM (active)

Request the reported GI50 associated with C=CCN1CCN([C@H](c2ccc(C(=O)N(CC)CC)cc2)c2cccc(OC)c2)CC1 > 25 µM (inactive)

Request the reported GI50 associated with CCOC(=O)/C(=C\NC(C)(C)C)c1nc2ccccc2[nH]1 23.7 µM (inactive)
